protocolSummary: activity coefficient (dimensionless); of the first substance listed, at infinite dilution; xn = mol fraction of the nth substance listed
measurementParameters: 338.15 K; 101 kPa; Liquid; Chromatography; x1 = 0
observable: activity coefficient

Check out these entries, answers already filled in.
INSERT INTO measurements (molecule, observable, testvalue) VALUES
  ('CCCCCCCCCC [decane] + NCCCCCCCCN', 'activity coefficient', 4.82),
  ('C=CCCCCCC [oct-1-ene] + NCCCCCCCCN', 'activity coefficient', 3.38),
  ('CCCCCCCl [1-chlorohexane] + NCCCCCCCCN', 'activity coefficient', 2.73),
  ('ClCCl [dichloromethane] + NCCCCCCCCN', 'activity coefficient', 0.552),
  ('C=CCCCCCCCC [1-decene] + NCCCCCCCCN', 'activity coefficient', 3.58);

[1] CCO [ethanol] + NCCCCCCCCN
[2] C=CCCCC [hex-1-ene] + NCCCCCCCCN
Name the one with the greater activity coefficient value, either 1 or 2 as given. Give the label of your selection. 2
(2: 2.94, 1: 0.407)

[1] CCCCCCl [1-chloropentane] + NCCCCCCCCN
[2] CCCCCC [hexane] + NCCCCCCCCN
[3] CCOC(C)=O [ethyl acetate] + NCCCCCCCCN
Please give the order of these molecules when sorted by activity coefficient, largest value leading. # format: label list in the order the request specifies 2, 1, 3
(2: 3.83, 1: 2.12, 3: 0.954)
